Attribution: paper PMC10786891

study-target: T1, EsCas13d, nuclease-dead (Eubacterium siraeum, UniProt B0MS50, R295A;H300A;R849A;H854A)
T1 sequence: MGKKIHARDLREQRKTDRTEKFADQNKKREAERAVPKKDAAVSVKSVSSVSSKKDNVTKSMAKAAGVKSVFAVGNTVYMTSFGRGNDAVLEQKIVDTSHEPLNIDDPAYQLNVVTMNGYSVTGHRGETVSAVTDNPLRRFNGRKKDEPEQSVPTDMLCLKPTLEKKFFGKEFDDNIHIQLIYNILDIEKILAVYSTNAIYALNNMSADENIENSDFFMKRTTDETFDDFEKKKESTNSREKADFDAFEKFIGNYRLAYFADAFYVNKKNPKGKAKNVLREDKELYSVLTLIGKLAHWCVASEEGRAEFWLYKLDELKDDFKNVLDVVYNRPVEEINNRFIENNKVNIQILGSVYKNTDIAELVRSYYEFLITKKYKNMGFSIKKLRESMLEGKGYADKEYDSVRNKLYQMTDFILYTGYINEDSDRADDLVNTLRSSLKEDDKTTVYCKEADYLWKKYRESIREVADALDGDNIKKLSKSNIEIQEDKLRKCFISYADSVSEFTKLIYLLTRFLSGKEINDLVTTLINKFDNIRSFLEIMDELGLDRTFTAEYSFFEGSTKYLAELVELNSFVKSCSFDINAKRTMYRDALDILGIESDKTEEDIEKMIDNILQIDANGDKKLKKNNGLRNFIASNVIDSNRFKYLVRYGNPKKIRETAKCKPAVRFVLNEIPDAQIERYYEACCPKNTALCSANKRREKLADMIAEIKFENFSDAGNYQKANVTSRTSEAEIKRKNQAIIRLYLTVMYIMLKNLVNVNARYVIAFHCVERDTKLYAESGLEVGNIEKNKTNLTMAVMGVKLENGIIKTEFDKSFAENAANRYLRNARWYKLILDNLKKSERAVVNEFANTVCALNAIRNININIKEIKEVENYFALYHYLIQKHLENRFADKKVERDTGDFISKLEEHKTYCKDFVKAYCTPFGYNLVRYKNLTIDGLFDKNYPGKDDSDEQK
method-description: crRNA (strand 1, pre-loaded); Mg2+; 40 mM Tris-HCl pH 7.5, 150 mM NaCl, 6 mM MgCl2, 1 mM DTT, 0.1% Tween-20, 0.2 mg/ml BSA; 25 C; 10 min per concentration, then washed
test-context: tags: His6-TwinStrep-SUMO cleaved; N-terminal SNAP kept (SNAP-Surface 488); label: 3' end held by stalled T7 RNA polymerase
pKd: −log10 of the molar value.
The following binders are shown together with reported pKd values.
measurement-label: pKd

{"binder": "target 2 MT 5'PFS AGG 3'PFS AUC (mixed) RNA 1: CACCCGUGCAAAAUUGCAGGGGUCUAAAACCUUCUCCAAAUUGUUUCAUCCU RNA 2: GGGAAUGGAUCCACAUCUACGAAUUCAGGAGGAUGAAACAAUUUGGAGAAGAUCAGAUCGGAAGAGCACACGU", "observed-value": 8.26}
{"binder": "target 1 insC 3' of 19,insU 3' of 5 (mixed) RNA 1: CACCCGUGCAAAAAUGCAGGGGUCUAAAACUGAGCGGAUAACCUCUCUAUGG RNA 2: GGGAAUGGAUCCACAUCUACGAAUUCGUACCAUCAGAGAGGUUAUCCGUCUCACCGAGAUCGGAAGAGCACACGU", "observed-value": 7.41}
{"binder": "target 2 MT 5'PFS ACA 3'PFS CAG (mixed) RNA 1: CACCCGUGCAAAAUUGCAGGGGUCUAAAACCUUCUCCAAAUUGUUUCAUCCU RNA 2: GGGAAUGGAUCCACAUCUACGAAUUCACAAGGAUGAAACAAUUUGGAGAAGCAGAGAUCGGAAGAGCACACGU", "observed-value": 8.32}
{"binder": "target 3 insG 3' of 7,insA 3' of 2 (mixed) RNA 1: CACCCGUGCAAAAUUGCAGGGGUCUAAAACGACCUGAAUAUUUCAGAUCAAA RNA 2: GGGAAUGGAUCCACAUCUACGAAUUCGUUUUUGAUCUGAAAUAUUGCAGGUACUGCAGAUCGGAAGAGCACACGU", "observed-value": 7.49}
{"binder": "target 1 insA 3' of 8,insU 3' of 7 (mixed) RNA 1: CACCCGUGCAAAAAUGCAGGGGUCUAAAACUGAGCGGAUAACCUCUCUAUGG RNA 2: GGGAAUGGAUCCACAUCUACGAAUUCGUACCAUAGAGAGGUUAUACUCGCUCACCGAGAUCGGAAGAGCACACGU", "observed-value": 7.89}
{"binder": "target 2 MT 5'PFS CCC 3'PFS UUA (mixed) RNA 1: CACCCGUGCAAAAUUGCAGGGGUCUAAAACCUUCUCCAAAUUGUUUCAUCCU RNA 2: GGGAAUGGAUCCACAUCUACGAAUUCCCCAGGAUGAAACAAUUUGGAGAAGUUAAGAUCGGAAGAGCACACGU", "observed-value": 8.90}
{"binder": "target 1 A1U,A9G (mixed) RNA 1: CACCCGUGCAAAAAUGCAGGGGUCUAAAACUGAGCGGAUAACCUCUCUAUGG RNA 2: GGGAAUGGAUCCACAUCUACGAAUUCGUACCAUAGAGAGGUUGUCCGCUCUCCGAGAUCGGAAGAGCACACGU", "observed-value": 7.88}
{"binder": "target 1 complement block 6-10 (mixed) RNA 1: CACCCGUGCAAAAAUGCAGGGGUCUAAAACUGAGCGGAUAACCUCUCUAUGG RNA 2: GGGAAUGGAUCCACAUCUACGAAUUCGUACCAUAGAGAGGUAUAGGGCUCACCGAGAUCGGAAGAGCACACGU", "observed-value": 8.00}
{"binder": "target 2 MT 5'PFS UCG 3'PFS AAA (mixed) RNA 1: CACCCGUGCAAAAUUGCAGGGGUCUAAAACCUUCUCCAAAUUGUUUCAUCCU RNA 2: GGGAAUGGAUCCACAUCUACGAAUUCUCGAGGAUGAAACAAUUUGGAGAAGAAAAGAUCGGAAGAGCACACGU", "observed-value": 7.80}
{"binder": "target 2 MT 5'PFS CUG 3'PFS UAC (mixed) RNA 1: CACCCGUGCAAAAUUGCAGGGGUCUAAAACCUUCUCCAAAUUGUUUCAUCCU RNA 2: GGGAAUGGAUCCACAUCUACGAAUUCCUGAGGAUGAAACAAUUUGGAGAAGUACAGAUCGGAAGAGCACACGU", "observed-value": 8.56}
{"binder": "target 2 MT 5'PFS GGC 3'PFS AAU (mixed) RNA 1: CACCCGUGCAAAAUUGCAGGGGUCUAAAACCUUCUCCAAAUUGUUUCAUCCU RNA 2: GGGAAUGGAUCCACAUCUACGAAUUCGGCAGGAUGAAACAAUUUGGAGAAGAAUAGAUCGGAAGAGCACACGU", "observed-value": 8.07}
